tested on: pERK in AsPC-1 cells; assay: ERK phosphorylation cell assay, AsPC-1; type: cell-based; conditions: AsPC-1 cells; read-out: pERK AsPC-1_IC50
Entries and their IC50 values follow.

Some solved cases for reference:
Exercise: For CC1(O)CCCN(c2nc(OCC(F)(F)F)nc3c(F)c4c(cc23)NCCCCCc2c(F)ccc3cc(O)cc-4c23)C1 (stereo not drawn) [Example 17B] , what is its reported IC50?
Key: > 10 µM

Exercise: What do we get for O=C1CCCCCCCCc2c(F)ccc3cc(O)cc(c23)-c2c(cc3c(N4CC5CCC(C4)N5)nc(OCC45CCCN4CC(F)C5)nc3c2F)N1 (stereo not drawn) [Example 10] ?
Key: > 10 µM

Exercise: Cool, now CN1CCOCCc2c(F)ccc3cc(O)cc(c23)-c2c1cc1c(N3CCC[C@@](C)(O)C3)nc(OC[C@@]34CCCN3C[C@H](F)C4)nc1c2F [Example 47]
Key: 0.0079 µM

---
Exercise: Please report the recorded IC50 for C=C1CN2CCCC2(COc2nc(N3CCC[C@@](C)(O)C3)c3cc4c(c(F)c3n2)-c2cc(O)cc3ccc(F)c(c23)CCCCCN4C)C1 (single isomer, unassigned) [Example 22B] .
Key: 0.898 µM

Exercise: Next molecule up: O=C1CCCCCc2c(F)ccc3cc(O)cc(c23)-c2c(cc3c(N4CC5CCC(C4)N5)nc(OC[C@@]45CCCN4C[C@H](F)C5)nc3c2F)N1 [Example 9A]
Key: 1.96 µM

Exercise: Request: O=C1CCCCCc2c(F)ccc3cc(O)cc(c23)-c2c(cc3c(N4CC5CCC(C4)N5)nc(OC[C@@]45CCCN4C[C@H](F)C5)nc3c2F)N1 [Example 9B]
Key: 0.07 µM
